Target: Calmodulin-1 (Homo sapiens) (UniProt P0DP23)
Assay: calcium-bound CALM1 binders on microarrays, profiling panel, artefact control for SMM control-protein annotation, biochemical, small-molecule microarray, Cy5-labelled CALM1, plus calcium (AID 1112);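 further: score merges spot fluorescence with signal to noise from triplicate slides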
Conditions: Cy5-CALM1 binding fluorescence, higher = more signal
READOUT_KIND: composite z-score
Respond using a number only.

Sample records with composite z-score:
COCCOC(=O)N1C(=O)[C@@]2(c3cc(C#CCCO)ccc31)[C@H](C(=O)Nc1nc3ccccc3s1)[C@H]1C(=O)O[C@H](c3ccccc3)[C@H](c3ccccc3)N1[C@@H]2c1ccccc1OCCO = -0.112
C=CCNC(=O)[C@H]1[C@@H]2C(=O)O[C@@H](c3ccccc3)[C@@H](c3ccccc3)N2[C@@H](c2ccc(O)cc2)[C@]12C(=O)N(C(=O)OCCOC)c1ccccc12 = -0.0816
CCC[C@@H]1C[C@@]1(CCC)[C@@H](NC(=O)OCc1ccccc1)c1ccc(-c2ccccc2)cc1 = 1.1

Field composite z-score (entry NC(=O)NCC#Cc1ccc2c(c1)[C@]1(C(=O)N2)[C@H](C(=O)O)[C@H]2C(=O)O[C@H](c3ccccc3)[C@H](c3ccccc3)N2[C@@H]1c1ccc(OCCO)cc1 ) reads 0.117

The compound identified as O=C1OCC=C[C@H]2OC34C=CCN(c5ccc(Cl)cc5)C(=O)[C@H]3N(CCO)C(=O)[C@@H]4[C@@H]12 (some centres undefined) registered its composite z-score at 0.515

Entry O=C1O[C@H](c2ccccc2)[C@H](c2ccccc2)N2[C@H]1[C@@H](C(=O)NC[C@H](O)c1ccccc1)[C@]1(C(=O)Nc3ccc(C#CCCO)cc31)[C@H]2c1ccc(OCCO)cc1 , composite z-score reported as 0.547

Given item C=CCC(OC(C)=O)[C@@H]1[C@@H](N(Cc2cc3ccccc3o2)C(=O)Cc2ccc(F)cc2)c2cc(OCCCO)ccc2N1C(=O)c1ccc2ccccc2c1 (some centres undefined) , the value recorded as its composite z-score is -0.06

Reported composite z-score of Cc1ccc(S[C@]2(C(=O)NCC(F)(F)F)CC(=O)N(Cc3ccccc3)[C@@H]2c2ccc(CO)cc2I)cc1 : 0.517

###

Test: small-molecule microarray binders of probe aNog, primary screen, biochemical, biotinylated probe, 635/667 nm fluorescence (AID 1115);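 further: probe is biotinylated aNog protein used at 0.15 µg/mL for 1 h at 4 C; z-score combines 667 nm fluorescence of each spot with its signal to noise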
Settings: higher = more signal
Classification by composite z-score | ranges: 1: < -0.3; 2: ≥ -0.3 and < 0.2; 3: ≥ 0.2

Some solved cases for reference:
C[C@]1(C(=O)NC2CC2)c2ccccc2C(=O)N(Cc2ccccc2)[C@H]1c1ccc(CO)cc1 = 2
COc1cc2c(cc1OC)CN(C(=O)[C@@H]1[C@H]3C(=O)O[C@H](c4ccccc4)[C@H](c4ccccc4)N3[C@H](c3ccc(OCCO)cc3)[C@@]13C(=O)Nc1ccc(C#CC4(O)CCCCCC4)cc13)CC2 = 2
NCCCCCNC(=O)[C@@H]1C[C@@H]2C(=O)NCC(=O)N2[C@@H]1c1cccc(OCCO)c1 = 3
COC(=O)[C@@]1(Cc2ccccc2)[C@H]2c3cc(C(=O)N(C)C)n(CCN4CNCC4=O)c3C[C@H]2CN1C(=O)c1ccccc1 = 3
COCCOC(=O)N1C(=O)[C@@]2(c3cc(C#CCCO)ccc31)[C@H](c1ccccc1OCCO)N1[C@H](c3ccccc3)[C@H](c3ccccc3)OC(=O)[C@H]1[C@@H]2C(=O)Nc1nc2ccccc2s1 = 3
COc1ccc([Si](C)(C)[C@@H]2[C@@H](CC(=O)N(CCO)Cc3ccccc3)O[C@]3(C(=O)N(Cc4cccc(N5C(=O)c6cccc7cccc5c67)c4)c4ccccc43)[C@H]2C)cc1 = 1
COCCOC(=O)N1C(=O)[C@@]2(c3cc(C#CCCO)ccc31)[C@H](C(=O)Nc1nc3ccccc3s1)[C@H]1C(=O)O[C@H](c3ccccc3)[C@H](c3ccccc3)N1[C@@H]2c1ccccc1OCCO = 1
[N-]=[N+]=Nc1ccccc1[C@H]1OC(c2ccc(OCCCO)cc2)=N[C@@]1(Cc1ccccc1)C(=O)N1CCCCC1 = 3
CC(C)(C)N1CC=CC23O[C@@H]4C=CCOC(=O)[C@@H]4[C@H]2C(=O)N(CCCCCCO)[C@@H]3C1=O (some centres undefined) = 1
COc1cc(OC)c(C(O)C2C=CC3C(=O)N(c4ccccc4)C(=O)C3N2Nc2ccccc2)cc1Br (centres undefined) = 2

Q: Which class is correct for the following compound? COC(=O)c1c2oc(c1C(=O)OC)C(=O)N(Cc1ccccc1)Cc1cn(nn1)C[C@H](Cc1ccccc1)NC(=O)N[C@H](CO)CC2
A: 1

Q: Pick a category. Item: COCCOC(=O)N1C(=O)[C@@]2(c3cc(C#CC4=CCCCC4)ccc31)[C@H](c1ccccc1OCCO)N1[C@H](c3ccccc3)[C@H](c3ccccc3)OC(=O)[C@H]1[C@@H]2C(=O)N1CCCCCCC1
A: 1

Q: Tag the class for Cc1ccccc1C(O)C1C=CC2C(=O)N(C)C(=O)C2N1N(c1ccccc1)c1ccccc1 (centres undefined)
A: 3

###

Assay: HepG2 cell viability effects, profiling panel, calcein-AM fluorescence, 48 h, basal (AID 1164); further: test concentration not given here
Details: higher = more signal
Reported z-score values for a set of compounds
Enter the number alone.

O=C1O[C@@H](c2ccccc2)[C@@H](c2ccccc2)N2[C@@H](c3ccccc3OCCO)[C@]3(C(=O)Nc4ccc(C#CCCO)cc43)[C@@H](C(=O)N3CCCCCCC3)[C@H]12 = 0.717
C=CCC(OC(C)=O)[C@@H]1[C@@H](N(Cc2cc3ccccc3o2)C(=O)c2ccc(C)cc2)c2cc(OCCCO)ccc2N1C(=O)Cc1ccc(OC)cc1 (stereo partly drawn) = 0.979
C=CCC(OC(C)=O)[C@@H]1[C@@H](N(Cc2cc3ccccc3o2)C(=O)Cc2ccc(F)cc2)c2cc(OCCCO)ccc2N1C(=O)c1ccc2ccccc2c1 (stereo partly drawn) = 1.93
COC(=O)c1c(CC[C@@H](CO)NC(=O)N[C@H](Cn2cc(C3(O)CCCCC3)nn2)C(C)C)oc(C(C)=O)c1C(=O)OC = -0.134
COCCOC(=O)N1C(=O)[C@@]2(c3ccccc31)[C@H](C(=O)N1CCN(c3ncccn3)CC1)[C@H]1C(=O)O[C@H](c3ccccc3)[C@H](c3ccccc3)N1[C@@H]2c1ccc(O)cc1 = 0.102

Summary for this compound, O=C1OCC=C[C@H]2OC34C=CCN(c5ccc(Cl)cc5)C(=O)[C@H]3N(CCO)C(=O)[C@@H]4[C@@H]12 (stereo partly drawn) : z-score is 0.781

Value of z-score reported for the compound Cc1ccc(S[C@]2(C(=O)NCC(F)(F)F)CC(=O)N(Cc3ccccc3C(F)(F)F)[C@@H]2c2ccc(CO)cc2I)cc1 is 0.707

// sample COc1ccc([Si](C)(C)[C@H]2[C@H](CCn3cc([C@H](O)c4ccccc4)nn3)O[C@@]3(C(=O)N(Cc4ccc(N5C(=O)c6cccc7cccc5c67)cc4)c4ccccc43)[C@@H]2C)cc1 , its z-score was 1.02

Given item NC(=O)NCC#Cc1ccc2c(c1)[C@]1(C(=O)N2)[C@H](C(=O)O)[C@H]2C(=O)O[C@H](c3ccccc3)[C@H](c3ccccc3)N2[C@@H]1c1ccc(OCCO)cc1 , the value recorded as its z-score is -0.519

Looking up CCCCCCc1nc(-c2cc(C)c(OC)c(C)c2)c(C)c2c1[Si](C(C)C)(C(C)C)OC2 , I found its z-score recorded as -0.289

Consider C=CCNC(=O)[C@@H]1[C@H]2C(=O)O[C@H](c3ccccc3)[C@H](c3ccccc3)N2[C@H](c2ccc(O)cc2)[C@@]12C(=O)N(C(=O)OCCOC)c1ccc(C#CC3(O)CCCCCC3)cc12 . Its measured z-score is 0.446

Please fill in: z-score reported for CCCC[C@@H]1C[C@H]1[C@@H](NC(=O)c1ccccc1)c1ccc(C(F)(F)F)cc1 = -0.959

Record summary for CCCCC=C[C@@H](NC(=O)c1ccc(-c2ccccc2)cc1)c1ccccc1 : reported z-score = -1.47

###

Molecular target: Left-right determination factor 2 (Homo sapiens)
Experiment: LEFTY2 binders on small-molecule microarrays, primary screen, biochemical, small-molecule microarray, 635 nm fluorescence scan (AID 1110)
Settings: LEFTY2 binding, higher = more signal
We begin with a simple list: items and their reported composite z-score.
Answer with a number only.

CC(C)(C)N1CC=CC23O[C@@H]4C=CCOC(=O)[C@@H]4[C@H]2C(=O)N(CCCCCCO)[C@@H]3C1=O (stereo not given in full) = -0.84

# compound O=C1OCC=C[C@H]2OC34C=CCN(c5ccc(Cl)cc5)C(=O)[C@H]3N(CCO)C(=O)[C@@H]4[C@@H]12 (stereo not given in full) ; its composite z-score = -0.884

Just so you know, measured composite z-score for CCCCC=C[C@@H](NC(=O)c1ccc(-c2ccccc2)cc1)c1ccccc1 came out at 0.184

Lab note: CCCNC(=O)[C@@H]1c2ccccc2C(=O)N(C(C)C)[C@H]1c1ccc(CO)cc1 gave composite z-score of -0.378

Briefly, composite z-score measured for C=CC[C@@]1(C(=O)N2CCOCC2)N=C(c2ccc(OCCCO)cc2)O[C@@H]1c1ccccc1CN=[N+]=[N-] : 0.898

According to the records, this compound [N-]=[N+]=NCc1ccccc1[C@H]1OC(c2ccc(OCCCO)cc2)=N[C@@]1(CCS(=O)(=O)c1ccccc1)C(=O)N1CCCCC1 displays composite z-score of 0.651

Lab note: measured composite z-score of CC(C)N1C(=O)c2ccccc2[C@@H](C(=O)NC2CC2)[C@@H]1c1ccc(CO)cc1 was 0.415

GET /value?item= O=C(NCCCCCNC(=O)/C(Cc1ccccc1)=N/O)OCc1ccccc1 &field=composite z-score returns 0.629

Memo: COc1ccc(CCNC(=O)[C@@]2(Sc3ccc(C)cc3)CC(=O)N(C3Cc4ccccc4C3)[C@@H]2c2ccc(CO)cc2)cc1 , reported composite z-score: 1.25

Entry under test: CN1C(=O)C2C=CC(C(O)COCc3ccccc3)N(N(c3ccccc3)c3ccccc3)C2C1=O (stereo not given) . Its composite z-score was -0.142

Query [N-]=[N+]=Nc1ccccc1[C@@H]1OC(c2ccc(OCCCO)cc2)=N[C@]1(Cc1ccccc1)C(=O)NCC(O)CO (stereo not given in full) yields composite z-score of -0.879

The compound CCOC(=O)c1ccc(NC(=O)O[C@H]2[C@H](OC(=O)Nc3ccc4c(c3)OCO4)[C@H](OC(=O)Nc3ccc4c(c3)OCO4)[C@@H](OC)O[C@@H]2CO)cc1 showed composite z-score equal to 0.803

Just so you know, measured composite z-score for NC(=O)N1C(=O)C2C(C1=O)C1C=C(CCCO)C2C(c2cccs2)N1Cc1cccc(OC(F)(F)F)c1 (stereo not given) came out at -0.0132

Memo: CN(C)CCCNC(=O)[C@@]1(C)c2ccccc2C(=O)N(Cc2ccccc2)[C@H]1c1ccc(CO)cc1 , reported composite z-score: -0.157

Quick note, composite z-score for NCCCCCCNC(=O)[C@@H]1C[C@@H]2C(=O)N[C@@H](CCCCN)C(=O)N2[C@@H]1c1cccc(OCCO)c1 landed at 1.1

Record COCCOC(=O)N1C(=O)[C@@]2(c3cc(C#CC4=CCCCC4)ccc31)[C@H](C(N)=O)[C@H]1C(=O)O[C@H](c3ccccc3)[C@H](c3ccccc3)N1[C@@H]2c1ccccc1OCCO . Reported composite z-score: 0.423
